system: Sarcoma-180; experiment: antitumor activity against subcutaneous Sarcoma-180 in mice, tail vein administration (Pharmacological Test II); type: in vivo, ICR mice; conditions: Mus musculus, Sarcoma-180, iv, 240 h, once a day for 7 consecutive days, tumor weight on 10th day, read-out: ED50 (50% tumor inhibition dose, T/C = 0.5)
Item-by-item account of ED50
Put your answer as a value accompanied by its unit after it.

Here's what some known entries look like.
NCC(=O)OC[C@H]1O[C@@H](n2cc(F)c(=O)[nH]c2=O)C[C@@H]1OCc1ccc(Cl)cc1
1 mg/kg
NCC(=O)OC[C@H]1O[C@@H](n2cc(F)c(=O)[nH]c2=O)C[C@@H]1OCc1ccc(Cl)cc1Cl
0.8 mg/kg
Cl.NCC(=O)OC[C@H]1O[C@@H](n2cc(F)c(=O)[nH]c2=O)C[C@@H]1OCc1ccc(Cl)cc1 [Example 8 (E)]
1 mg/kg

**Query** Which ED50 reading was recorded for the compound `CC(C)C[C@H](N)C(=O)OC[C@H]1O[C@@H](n2cc(F)c(=O)[nH]c2=O)C[C@@H]1OCc1ccc(Cl)cc1` ?
**Result** 1.5 mg/kg

**Query** Try the compound `CC(C)[C@H](N)C(=O)OC[C@H]1O[C@@H](n2cc(F)c(=O)[nH]c2=O)C[C@@H]1OCc1ccc(Cl)cc1`
**Result** 1.5 mg/kg

**Query** Another compound: `C[C@H](N)C(=O)OC[C@H]1O[C@@H](n2cc(F)c(=O)[nH]c2=O)C[C@@H]1OCc1ccc(Cl)cc1`
**Result** 1 mg/kg

Data origin: patent US4946951A
